- test.system: P2Y purinoceptor 4 (Homo sapiens, UniProt P51582)
- Sequence (P51582 whole entry): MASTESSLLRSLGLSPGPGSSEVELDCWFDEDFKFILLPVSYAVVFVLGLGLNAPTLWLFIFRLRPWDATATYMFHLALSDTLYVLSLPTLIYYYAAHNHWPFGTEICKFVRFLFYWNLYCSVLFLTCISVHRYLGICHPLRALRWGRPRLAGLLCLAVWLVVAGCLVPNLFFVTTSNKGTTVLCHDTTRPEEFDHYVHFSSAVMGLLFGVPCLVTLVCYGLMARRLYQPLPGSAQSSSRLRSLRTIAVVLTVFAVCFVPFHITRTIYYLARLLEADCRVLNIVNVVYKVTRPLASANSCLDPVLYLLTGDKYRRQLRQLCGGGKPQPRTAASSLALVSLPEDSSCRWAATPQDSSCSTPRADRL
- protocol.summary: Agonist activity at human recombinant P2Y4 receptor expressed in human 1321N1 cells assessed as [3H]inositol phosphate intracellular accumulation by scintillation proximity assay
- Assay type: functional, cell-based
experimental.readout: EC50

In [3]: df
Out[3]:
                            compound_smiles  experimental_readout  recorded_result
0  CNc1nc(=O)ccn1[C@@H]1O[C@H](COP(=O)(O)O)[C@@H](O)[C@H]1O                  EC50         > 100 µM
1  CSc1nc(=O)ccn1[C@@H]1O[C@H](COP(=O)(O)O)[C@@H](O)[C@H]1O                  EC50         > 100 µM
2  O=c1ccn([C@@H]2O[C@H](COP(=O)(O)OP(=O)(O)O)[C@@H](O)[C@H]2O)c(SCCc2ccccc2)n1                  EC50         ≥ 100 µM
3  Nc1nc(=O)ccn1[C@@H]1O[C@H](COP(=O)(O)OP(=O)(O)O)[C@@H](O)[C@H]1O                  EC50         ≥ 100 µM
4  O=c1ccn([C@@H]2O[C@H](COP(=O)(O)OP(=O)(O)C(Cl)(Cl)P(=O)(O)O)[C@@H](O)[C@H]2O)c(=O)[nH]1                  EC50         ≥ 100 µM
5  O=c1ccn([C@@H]2O[C@H](COP(=O)(O)O)[C@@H](O)[C@H]2O)c(SCCc2ccccc2)n1                  EC50         > 100 µM
6  COc1nc(=O)ccn1[C@@H]1O[C@H](COP(=O)(O)O)[C@@H](O)[C@H]1O                  EC50         > 100 µM
7  O=c1ccn([C@@H]2O[C@H](COP(=O)(O)OP(=O)(O)C(F)(F)P(=O)(O)O)[C@@H](O)[C@H]2O)c(=O)[nH]1                  EC50         > 100 µM
8  CNc1nc(=O)ccn1[C@@H]1O[C@H](COP(=O)(O)OP(=O)(O)O)[C@@H](O)[C@H]1O                  EC50         ≥ 100 µM

----------
- test.system: P2Y purinoceptor 6 (Homo sapiens)
- Sequence (Q15077 whole entry): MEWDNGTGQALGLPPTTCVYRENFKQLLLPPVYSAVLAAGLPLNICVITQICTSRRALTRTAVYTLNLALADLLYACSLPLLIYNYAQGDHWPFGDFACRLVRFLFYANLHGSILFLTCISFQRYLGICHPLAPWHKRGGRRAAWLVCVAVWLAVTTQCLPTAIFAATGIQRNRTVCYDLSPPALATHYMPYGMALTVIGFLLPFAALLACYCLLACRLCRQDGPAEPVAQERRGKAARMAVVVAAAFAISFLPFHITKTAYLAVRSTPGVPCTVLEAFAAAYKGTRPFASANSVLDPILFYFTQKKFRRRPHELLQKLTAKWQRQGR
- protocol.summary: Agonist activity at human recombinant P2Y6 receptor expressed in human 1321N1 cells assessed as [3H]inositol phosphate intracellular accumulation by scintillation proximity assay
- Type: functional, cell-based
pEC50: −log10 of the molar value.
experimental.readout: pEC50

>>> print(df.to_string())
                            compound_smiles                        test_system  experimental_readout  recorded_result
0  CNc1nc(=O)ccn1[C@@H]1O[C@H](COP(=O)(O)OP(=O)(O)O)[C@@H](O)[C@H]1O  P2Y purinoceptor 6 (Homo sapiens)                 pEC50           < 4.00
1  O=c1ccn([C@@H]2O[C@H](COP(=O)(O)O)[C@@H](O)[C@H]2O)c(SCCc2ccccc2)n1  P2Y purinoceptor 6 (Homo sapiens)                 pEC50           < 4.00
2  O=c1ccn([C@@H]2O[C@H](COP(=O)(O)OP(=O)(O)C(Cl)(Cl)P(=O)(O)O)[C@@H](O)[C@H]2O)c(=O)[nH]1  P2Y purinoceptor 6 (Homo sapiens)                 pEC50             5.21
3  CNc1nc(=O)ccn1[C@@H]1O[C@H](COP(=O)(O)O)[C@@H](O)[C@H]1O  P2Y purinoceptor 6 (Homo sapiens)                 pEC50           < 4.00
4  Nc1nc(=O)ccn1[C@@H]1O[C@H](COP(=O)(O)OP(=O)(O)O)[C@@H](O)[C@H]1O  P2Y purinoceptor 6 (Homo sapiens)                 pEC50           ≤ 4.00
5  Nc1nc(=O)ccn1[C@@H]1O[C@H](COP(=O)(O)O)[C@@H](O)[C@H]1O  P2Y purinoceptor 6 (Homo sapiens)                 pEC50           < 4.00
6  O=c1[nH]c(=S)ccn1[C@@H]1O[C@H](COP(=O)(O)O)[C@@H](O)[C@H]1O  P2Y purinoceptor 6 (Homo sapiens)                 pEC50           < 4.00
7  O=c1ccn([C@@H]2O[C@H](COP(=O)(O)OP(=O)(O)C(F)(F)P(=O)(O)O)[C@@H](O)[C@H]2O)c(=O)[nH]1  P2Y purinoceptor 6 (Homo sapiens)                 pEC50             5.58

Origin of measurements: ChEMBL document CHEMBL1765086
